This collection of values is drawn from paper PMC5516711.

Assay: Pharmacokinetic study in rats after oral administration of Naoxintong capsule (NXTC), plasma levels by HPLC-MS/MS
Conditions: male, Sprague-Dawley, rat, plasma, po, 1.5 g/kg
# Tmax per record follows
Dear colleague, please return just the value in min, with no unit written.

Some solved entries appear below for comparison.
molecule: COc1ccc(-c2coc3cc(O)ccc3c2=O)cc1 [Formononetin, formononetin]
unit_tag: min
Tmax: 22.8
//
molecule: Cc1coc2c1C(=O)C(=O)c1c-2ccc2c1CCCC2(C)C [Tanshinone IIA, tanshinone IIA]
unit_tag: min
Tmax: 190
//
molecule: C[C@H]1COC2=C1C(=O)C(=O)c1c2ccc2c1CCCC2(C)C [Cryptotanshinone, cryptotanshinone]
unit_tag: min
Tmax: 36

Now for the molecule whose Tmax we want.
// O=C(O)/C=C/c1ccc(O)c(O)c1 [Caffeic acid, caffeic acid] : Tmax value = 12

---

Assay: Pharmacokinetic study in rats after oral administration of Naoxintong capsule (NXTC), plasma levels by HPLC-MS/MS
Details: male, Sprague-Dawley, rat, plasma, po, 1.5 g kg^−1
measured_endpoint: half-life (h)
# value in h; strip the unit string

What the record says about C[C@H]1COC2=C1C(=O)C(=O)c1c2ccc2c1CCCC2(C)C [Cryptotanshinone, cryptotanshinone] : half-life is 17.8

---

The molecules listed here are annotated with their MRT last.
Experiment: Pharmacokinetic study in rats after oral administration of Naoxintong capsule (NXTC), plasma levels by HPLC-MS/MS
Conditions: male, Sprague-Dawley, rat, plasma, po, 1.5 g/kg
Supply the numeric figure in h, leaving out any unit text.

Here's what some known entries look like.
test_smiles: COc1ccc(-c2coc3cc(O)ccc3c2=O)cc1
MRT last, h: 5.16

test_smiles: C[C@H]1COC2=C1C(=O)C(=O)c1c2ccc2c1CCCC2(C)C
MRT last, h: 7.37

test_smiles: Cc1coc2c1C(=O)C(=O)c1c-2ccc2c1CCCC2(C)C
MRT last, h: 5.75

// sample O=C(O)/C=C/c1ccc(O)c(O)c1 , its MRT last was 2.03

---

Tmax: recorded values
Test: Pharmacokinetic study in rats after oral administration of Naoxintong capsule (NXTC), plasma levels by HPLC-MS/MS
Settings: male, Sprague-Dawley, rat, plasma, po

Short answer for O=C(O)/C=C/c1ccc(O)c(O)c1 : Tmax was < 1 h

Lab book: Tmax of COc1ccc(-c2coc3cc(O)ccc3c2=O)cc1 noted as < 1 h

---

Assay: Pharmacokinetic study in rats after oral administration of Naoxintong capsule (NXTC), plasma levels by HPLC-MS/MS
Details: male, Sprague-Dawley, rat, plasma, po, 1.5 g/kg
In this section we review reported Cmax values for a set of compounds.
I'd appreciate it if you wrote the number followed by its unit.

compound: COc1ccc(-c2coc3cc(O)ccc3c2=O)cc1 [Formononetin, formononetin]
meas_value: 0.37 ng/mL
--
compound: Cc1coc2c1C(=O)C(=O)c1c-2ccc2c1CCCC2(C)C [Tanshinone IIA, tanshinone IIA]
meas_value: 4.18 ng/mL
--
compound: C[C@H]1COC2=C1C(=O)C(=O)c1c2ccc2c1CCCC2(C)C [Cryptotanshinone, cryptotanshinone]
meas_value: 2.78 ng/mL

Lookup result for O=C(O)/C=C/c1ccc(O)c(O)c1 [Caffeic acid, caffeic acid] ; measured Cmax: 15.2 ng/mL

---

Experiment: Pharmacokinetic study in rats after oral administration of Naoxintong capsule (NXTC), plasma levels by HPLC-MS/MS
Settings: male, Sprague-Dawley, rat, plasma, po, 0.5 g/kg
measured_endpoint: AUC(0-inf) (ng·h/mL)
Your answer is read as ng·h/mL, so omit the unit and give the number.

test_smiles: Cc1coc2c1C(=O)C(=O)c1c-2ccc2c1CCCC2(C)C
unit_tag: ng·h/mL
AUC(0-inf): 27.7

test_smiles: C[C@H]1COC2=C1C(=O)C(=O)c1c2ccc2c1CCCC2(C)C
unit_tag: ng·h/mL
AUC(0-inf): 4.72

test_smiles: O=C(O)/C=C/c1ccc(O)c(O)c1
unit_tag: ng·h/mL
AUC(0-inf): 19.6

response.value for COc1ccc(-c2coc3cc(O)ccc3c2=O)cc1 (field: AUC(0-inf)) = 0.15

---

Experiment: Pharmacokinetic study in rats after oral administration of Naoxintong capsule (NXTC), plasma levels by HPLC-MS/MS
Conditions: male, Sprague-Dawley, rat, plasma, po
measured_endpoint: AUC(0-t)

// recorded AUC(0-t) for COc1ccc(-c2coc3cc(O)ccc3c2=O)cc1 [Formononetin, formononetin] : < 1 ng·h/mL

---

Experiment: Pharmacokinetic study in rats after oral administration of Naoxintong capsule (NXTC), plasma levels by HPLC-MS/MS
Conditions: male, Sprague-Dawley, rat, plasma, po, 1.5 g/kg
measured_endpoint: AUC(0-t) (ng·h/mL)
Just the number in ng·h/mL, nothing appended.

test_smiles: O=C(O)/C=C/c1ccc(O)c(O)c1
unit_tag: ng·h/mL
AUC(0-t): 26

Measured AUC(0-t), Cc1coc2c1C(=O)C(=O)c1c-2ccc2c1CCCC2(C)C : 35.4

// COc1ccc(-c2coc3cc(O)ccc3c2=O)cc1 : AUC(0-t) value = 1.47

For reference, reported AUC(0-t) for C[C@H]1COC2=C1C(=O)C(=O)c1c2ccc2c1CCCC2(C)C stands at 24.8

---

Test: Pharmacokinetic study in rats after oral administration of Naoxintong capsule (NXTC), plasma levels by HPLC-MS/MS
Details: doses of 0.5 g kg^−1 and 1.5 g kg^−1, at the present LLOQ level
measured_endpoint: Detection in rat plasma after oral administration of NXTC

test_smiles: C[C@H]1COC2=C1C(=O)C(=O)c1c2ccc2c1CCCC2(C)C
meas_value: could be detected
//
test_smiles: Cc1coc2c1C(=O)C(=O)c1c-2ccc2c1CCCC2(C)C
meas_value: could be detected

---

Measured MRT inf by item
Assay: Pharmacokinetic study in rats after oral administration of Naoxintong capsule (NXTC), plasma levels by HPLC-MS/MS
Conditions: male, Sprague-Dawley, rat, plasma, po, 0.5 g/kg
Form entry: enter the amount, then its unit.

test_smiles: COc1ccc(-c2coc3cc(O)ccc3c2=O)cc1
meas_value: 1.67 h

Short answer for Cc1coc2c1C(=O)C(=O)c1c-2ccc2c1CCCC2(C)C : MRT inf was 26.8 h

Reported MRT inf for C[C@H]1COC2=C1C(=O)C(=O)c1c2ccc2c1CCCC2(C)C was 20.7 h

MRT inf in this record for O=C(O)/C=C/c1ccc(O)c(O)c1 : 4.02 h

---

Assay: Pharmacokinetic study in rats after oral administration of Naoxintong capsule (NXTC), plasma levels by HPLC-MS/MS
Settings: male, Sprague-Dawley, rat, plasma, po, 1.5 g/kg
measured_endpoint: half-life
Please make sure the unit comes right after the number.

molecule: O=C(O)/C=C/c1ccc(O)c(O)c1 [Caffeic acid, caffeic acid]
measured_endpoint: half-life
meas_value: 0.7 h
//
molecule: Cc1coc2c1C(=O)C(=O)c1c-2ccc2c1CCCC2(C)C [Tanshinone IIA, tanshinone IIA]
measured_endpoint: half-life
meas_value: 13.2 h

# half-life (molecule: C[C@H]1COC2=C1C(=O)C(=O)c1c2ccc2c1CCCC2(C)C [Cryptotanshinone, cryptotanshinone] ) is 17.8 h

Kindly note the recorded half-life for COc1ccc(-c2coc3cc(O)ccc3c2=O)cc1 [Formononetin, formononetin] , which is 1.42 h

---

Listing of recorded AUC(0-t) by entry.
Test: Pharmacokinetic study in rats after oral administration of Naoxintong capsule (NXTC), plasma levels by HPLC-MS/MS
Conditions: male, Sprague-Dawley, rat, plasma, po, 0.5 g/kg

Below: 3 compounds and their reported AUC(0-t).
test_smiles: C[C@H]1COC2=C1C(=O)C(=O)c1c2ccc2c1CCCC2(C)C
AUC(0-t): 1.49 ng·h/mL
//
test_smiles: O=C(O)/C=C/c1ccc(O)c(O)c1
AUC(0-t): 11.7 ng·h/mL
//
test_smiles: Cc1coc2c1C(=O)C(=O)c1c-2ccc2c1CCCC2(C)C
AUC(0-t): 8.15 ng·h/mL

GET /value?item= COc1ccc(-c2coc3cc(O)ccc3c2=O)cc1 &field=AUC(0-t) returns 0.08 ng·h/mL

---

We begin with a simple list: items and their reported Tmax.
Assay: Pharmacokinetic study in rats after oral administration of Naoxintong capsule (NXTC), plasma levels by HPLC-MS/MS
Conditions: male, Sprague-Dawley, rat, plasma, po, 0.5 g/kg
Provide the reading as a plain figure in min.

test_smiles: C[C@H]1COC2=C1C(=O)C(=O)c1c2ccc2c1CCCC2(C)C
unit_tag: min
meas_value: 30.6

test_smiles: O=C(O)/C=C/c1ccc(O)c(O)c1
unit_tag: min
meas_value: 10.8

test_smiles: COc1ccc(-c2coc3cc(O)ccc3c2=O)cc1
unit_tag: min
meas_value: 29.4

# molecule Cc1coc2c1C(=O)C(=O)c1c-2ccc2c1CCCC2(C)C ; its Tmax = 32.4

---

Test: Pharmacokinetic study in rats after oral administration of Naoxintong capsule (NXTC), plasma levels by HPLC-MS/MS
Conditions: male, Sprague-Dawley, rat, plasma, po, 0.5 g/kg
measured_endpoint: half-life (h)
# value in h; strip the unit string

Known results for compounds:
test_smiles: Cc1coc2c1C(=O)C(=O)c1c-2ccc2c1CCCC2(C)C
unit_tag: h
half-life: 11.4
--
test_smiles: O=C(O)/C=C/c1ccc(O)c(O)c1
unit_tag: h
half-life: 0.83

Quick note, half-life for C[C@H]1COC2=C1C(=O)C(=O)c1c2ccc2c1CCCC2(C)C landed at 2.93

Note to self: half-life recorded for COc1ccc(-c2coc3cc(O)ccc3c2=O)cc1 was 2.96
